These data points were gathered from patent US20220378931A1.

molecular target: T1, cow serum albumin (cow, UniProt P02769 25-607); assay: SPR (Biacore 8K), albumin immobilised, 25 C, steady-state affinity
T1 construct: bought protein, amine-coupled to a CM5 chip; also called Cow SA; Bovine SA
Readout Name: Kd
// return the numeric value with its unit appended

INSERT INTO results (binder, readout_name, result_value) VALUES
  ('INS Analog 24 (other, single-chain insulin B-L2-A-L1-VHH fusion; also called Ex. 24) FVSQHLCGSHLVEALHLVCGERGFHYTPKTGGGGGGGIVEQCCHSICSLEQLENYCGPGPQPGPQPGPQPGPQPGPQPGPQPGPQPGPQEVQLLESGGGLVQPGGSLRLSCAASGRYIDETAVAWFRQAPGKEREFVAGIGGGVDITYYADSVKGRFTISRDNSKNTLYLQMNSLRPEDTAVYYCAARPGRPLITSKVADLYPYWGQGTLVTVSSPP', 'Kd', '430 nM'),
  ('INS Analog 30 (other, single-chain insulin B-L2-A-L1-VHH fusion; also called Ex. 30) FVSQHLCGSHLVEALRLVCGERGFHYTPKTGGGGGGGIVEQCCHSICSLYQLENYCGPGPQPGPQPGPQPGPQPGPQPGPQPGPQPGPQEVQLLESGGGLVQPGGSLRLSCAASGRYIDETAVAWFRQAPGKEREFVAGIGGGVDITYYADSVKGRFTISRDNSKNTLYLQMNSLRPEDTAVYYCAARPGRPLITSKVADLYPYWGQGTLVTVSSPP', 'Kd', '370 nM'),
  ('INS Analog 29 (other, single-chain insulin B-L2-A-L1-VHH fusion; also called Ex. 29) FVSQHLCGSHLVEALRLVCGERGFHYTPKTGGGGGGGIVEQCCHSICSLYQLENYCGGGGGQGGGGQGGGGQGGGGQGGGGQEVQLLESGGGLVQPGGSLRLSCAASGRYIDETAVAWFRQAPGKEREFVAGIGGGVDITYYADSVKGRFTISRDNSKNTLYLQMNSLRPEDTAVYYCAARPGRPLITSKVADLYPYWGQGTLVTVSSPP', 'Kd', '380 nM'),
  ('INS Analog 23 (other, single-chain insulin B-L2-A-L1-VHH fusion; also called Ex. 23) FVSQHLCGSHLVEALHLVCGERGFHYTPKTGGGGGGGIVEQCCHSICSLEQLENYCGGGGGQGGGGQGGGGQGGGGQGGGGQEVQLLESGGGLVQPGGSLRLSCAASGRYIDETAVAWFRQAPGKEREFVAGIGGGVDITYYADSVKGRFTISRDNSKNTLYLQMNSLRPEDTAVYYCAARPGRPLITSKVADLYPYWGQGTLVTVSSPP', 'Kd', '590 nM');

Task item: Kd for INS Analog 26 (other, single-chain insulin B-L2-A-L1-VHH fusion; also called Ex. 26) FVSQHLCGSHLVEALRLVCGERGFFYTPKTGGGGGGGIVEQCCTSICSLYQLENYCGPGPQPGPQPGPQPGPQPGPQPGPQPGPQPGPQEVQLLESGGGLVQPGGSLRLSCAASGRYIDETAVAWFRQAPGKEREFVAGIGGGVDITYYADSVKGRFTISRDNSKNTLYLQMNSLRPEDTAVYYCAARPGRPLITSKVADLYPYWGQGTLVTVSSPP ?
Reply: 400 nM

Task item: Recorded Kd of INS Analog 27 (other, single-chain insulin B-L2-A-L1-VHH fusion; also called Ex. 27) FVSQHLCGSHLVEALRLVCGERGFFYTPKTGGGGGGGIVEQCCHSICSLYQLENYCGGGGGQGGGGQGGGGQGGGGQGGGGQEVQLLESGGGLVQPGGSLRLSCAASGRYIDETAVAWFRQAPGKEREFVAGIGGGVDITYYADSVKGRFTISRDNSKNTLYLQMNSLRPEDTAVYYCAARPGRPLITSKVADLYPYWGQGTLVTVSSPP , please.
Reply: 390 nM

Task item: Suppose we examine the binder INS Analog 28 (other, single-chain insulin B-L2-A-L1-VHH fusion; also called Ex. 28) FVSQHLCGSHLVEALRLVCGERGFFYTPKTGGGGGGGIVEQCCHSICSLYQLENYCGPGPQPGPQPGPQPGPQPGPQPGPQPGPQPGPQEVQLLESGGGLVQPGGSLRLSCAASGRYIDETAVAWFRQAPGKEREFVAGIGGGVDITYYADSVKGRFTISRDNSKNTLYLQMNSLRPEDTAVYYCAARPGRPLITSKVADLYPYWGQGTLVTVSSPP ; what Kd value has been reported?
Reply: 400 nM
